meta.source: patent US20240218057A1

Measured on: T1, SARS-COV-2 RBD (SARS-COV-2, UniProt P0DTC2 319-539)
T1 construct: also called WT RBD
Procedure summary: ELISA, RBD coated on plate
Measured parameter: EC50 (ng/mL)
Answers are plain numbers, in ng/mL.

For orientation, consider the following solved cases.
Binder	EC50, ng/mL
C1066 (antibody, V domains shown) VH: EVQLVESGGGLVQPGRSLRLSCAASGFMFDDYAMHWVRQAPGKGLEWVSGINWSSADIGYVDSVKGRFTISRDNAKNSLYLQMNSLRTEDTAFYYCAKGWFGELLGGSDSWGQGTLVTVSS VL: QLVLTQSSSASASLGSSVKLTCTLNSGHSSYIIAWHQQQPGKAPRYLMKLEGSGSYNKGSGVPDRFSGSSSGADRYLTISNLQFEDEADYYCATWDSNTQVFGGGTKLTVL	3.01
C1022 (antibody, V domains shown) VH: QVQLVQSGAEVKTPGASVKVSCQASGDTFTSQYLHWVRQAPGQGLEWMGIINPTAGSTTYAQKFQGRVTMTRDTSTSTVYMELRSLRSEDMAVYYCARGGFIPMVRGFIDHWGQGTLVTVSS VL: QSALTQPASVSGSPGQSITISCTGTSSDVGGYNYVSWYQQHPGKAPKLMIYDVSNRPSGVSTRFSGSKSGNTASLTISGLQAEDEADYYCSSPTSSNTHVFGTGTKVTVL	1.66

Asked: Using known records, supply EC50 for C1006 (antibody, V domains shown) VH: QVQLVQSGAEVRKPGSSVKVSCKASGGPFDQYTFSWVRQAPGQGLEWMARITPVVDLTNYAQKFQGRITIITDKSTSTAYMELSSLRSEDTAIYYCATPLNDYYASGNLGLWGQGTLVTVSS VL: DIQMTQSPSSLSASIGDRVTITCRASQGISYYLAWFQQKPGEAPRSLIYDASSLQSGVPSKFSGSGSGTDFTLTISSLQPEDSATYYCQQYNSYPLTFGGGTKVEIK
Given back: 2.04
